// data source = PubChem BioAssay AID1159580

Experiment: chemical genetic growth profiling, strain panel (AID 1159580);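 also: tested at 20 µM; growth read once vehicle control cultures reached saturation at 30 °C; 1 = growth at the plate median or of vehicle wells; lower values mean less growth of the strain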
Settings: S. cerevisiae deletion strains, growth OD, locus YPL106C, strain sse1, stronger effect = lower value
The whole screen tested about 5,500 compounds, of which about 2,000 (36%) were called active. Roughly 18% stayed inconclusive and do not appear here. The list shows a part of the results.
Below, each of the compounds is paired with its reported normalized growth value.
Give the figure by itself; no unit, no explanation.

# count of solved cases: 5
| compound | normalized growth |
| --- | --- |
| O=C(CCCN1CC=C(n2c(=O)[nH]c3ccccc32)CC1)c1ccc(F)cc1 | 0.967 |
| O=C1c2ccccc2-c2cccc3cccc1c23 | 0.74 |
| O=C(O)CCCN1C(=O)c2cccc3cccc(c23)C1=O | 1.01 |
| CC(C)CCCC(C)[C@H]1CCC2C3CC[C@H]4CC(=O)CC[C@]4(C)C3CC[C@@]21C (stereo not given in full) | 1.01 |
| CC(C)=CCC1=C(O)c2ccccc2C(=O)C1=O | 0.816 |

Q: Given the compound "Cn1cnc([N+](=O)[O-])c1Sc1ncnc2nc[nH]c12" , what is its reported normalized growth?
Ans: 1.03

Q: Which normalized growth value is on record for "COP(=S)(OC)SCn1nnc2ccccc2c1=O" ?
Ans: 1.02

Q: So what does the record say about normalized growth for "Cc1c(N(C)CS(=O)(=O)O)c(=O)n(-c2ccccc2)n1C" ?
Ans: 1.02

Q: Please report the recorded normalized growth for CC(C)(O)CC[C@@H](O)[C@](C)(O)C1CC[C@@]2(O)C3=CC(=O)C4C[C@@H](O)[C@@H](O)C[C@]4(C)C3CC[C@]12C (stereo not given in full) .
Ans: 1.01

Q: Quick one: normalized growth of C[C@]12CCC3C(CC[C@H]4CC(=O)CC[C@]34C)C1CCC2=O (stereo not given in full) ?
Ans: 1.14
